Cited source: ChEMBL document CHEMBL4265946

- ASSAY SUMMARY: Toxicity in rat
- Format: organism-based
- ASSAY CONDITIONS: in vivo
MEASUREMENT LABEL: NOAEL (mg/kg/day)
Quick reminder: number only, in mg/kg/day, skip the unit.

Incoming: Using the record for CC1(C)CC(C)(C)c2cc(NC(=S)Nc3ccc([N+](=O)[O-])cc3)ccc2S1 [SHETA-2] , report its NOAEL.
Outgoing: 500
